Source: paper PMC9558256

- protocol details: Cytotoxicity on Vero cells
- Format: cell-based
- condition set: African green monkey
Doc: threshold 50 µM (exclusive). Items with CC50 beneath it return 1 (yes); others return 0 (no).

• CC(C)(C)NC=C1C(=O)C(=O)c2ccccc2C1=O [Compound 28] = 0 (no)
• COc1cc(-c2c(NC3CCCCC3)oc3c2C(=O)c2ccccc2C3=O)cc(OC)c1OC [Compound 19] = 0 (no)
• CCCCNc1oc2c(c1-c1cc(OC)c(OC)c(OC)c1)C(=O)c1ccccc1C2=O [Compound 24] = 0 (no)
• CCCCNC=C1C(=O)C(=O)c2ccccc2C1=O [Compound 29] = 0 (no)
• CC(C)(C)Nc1oc2c(c1C1CCN(Cc3ccccc3)CC1)C(=O)c1ccccc1C2=O [Compound 17] = 0 (no)
• O=C1C(O)=C([C@H]2CC[C@H](c3ccc(Cl)cc3)CC2)C(=O)c2ccccc21 [atovaquone (7), atovaquone, reference compound] = 1 (yes)
• CCCCNc1oc2c(c1C1CCN(Cc3ccccc3)CC1)C(=O)c1ccccc1C2=O [Compound 27] = 1 (yes)
• O=C1c2ccccc2C(=O)c2c1oc(NC1CCCCC1)c2C1CCN(Cc2ccccc2)CC1 [Compound 22] = 1 (yes)
